- Test system: HCT-15
quantityMeasured: GI50

Here's what some known entries look like.
compound	GI50
Cc1ccc(/N=C2/SC(c3ccc(C)cc3)(c3ccc(C)cc3)c3ccccc32)cc1	> 100 µM
CSc1c(C#N)c(=O)[nH]c2[nH]nc(C)c12	> 100 µM

Proceeding to the next compound to report its GI50.
Prompt: Report GI50 for COC(=O)CC1c2ccccc2N2C(=O)Cc3c([nH]c4ccccc34)C12 (stereo not drawn) tested on HCT-15.
Response: > 100 µM

* * *

- Test system: SF-268
- assayNotes: NCI tumour cell line growth inhibition, 48 h
Calls of active or inactive are those of the source. Cut-off read from the data, not from the text of the source: active = GI50 up to about 1.1 µM and inactive = higher.
// classify into Yes = active, No = inactive

Example cases with answers are listed next.
molecule	testTarget	labelClass
COc1cc2c(cc1OCCCOS(C)(=O)=O)N=C[C@@H]1CCCN1C2=O	SF-268	No
c1ccc(SC2(Sc3ccccc3)CCCC2)cc1	SF-268	No
CCOC(=O)C(C)c1nc2ccc(C(F)(F)F)cc2[nH]c1=O (stereo not drawn)	SF-268	No

Prompt: State the result this test recorded for CC1CC(c2ccc(Cl)cc2)=Nc2ccccc2S1 (stereo not drawn) .
Response: No

Prompt: Recorded test call requested for NC(=O)NC1C(C(N)=O)N(Cc2ccccc2)C(=O)N1Cc1ccccc1 (stereo not drawn)
Response: No

Prompt: Test call, this molecule: "CCOC(=O)c1c(SC(=O)/C=C/c2ccccc2)n(-c2ccccc2)c(=S)n(-c2ccccc2)c1=O"
Response: No

Prompt: Test call, this molecule: "Cc1nn(-c2ccccc2)c2nc3c(c(C)nn3-c3ccccc3)c(-c3ccccc3Br)c12"
Response: No

Prompt: I'd appreciate the recorded outcome for C=C1C(=O)O[C@@H]2C[C@]3(C)CC[C@]4(C)[C@H](CC[C@@H]5[C@@]6(C)CCC(=O)C(C)(C)[C@@H]6CC[C@]54C)[C@H]3[C@H]12 [OCHRACEOLIDE A] from this test.
Response: No

* * *

- System: NCI-H460
- assayNotes: NCI tumour cell line growth inhibition, 48 h
The source made the active and inactive calls. Rule as the data show it: active = GI50 up to about 1.1 µM and inactive = higher.
Listed molecules paired with reported GI50

molecule	assayResult
O=C1C(c2ccccc2)=C(c2ccccc2)[C@H](c2ccccc2)[C@]1(Cc1nnn(-c2ccc([N+](=O)[O-])cc2)c1N1CCOCC1)c1ccccc1	> 37.5 µM (inactive)
CC1(C)COC(c2cccnc2/C=N/O)=N1	> 100 µM (inactive)
COCC(=O)CP(=O)(OC)OC	> 100 µM (inactive)
O=C(O)CCc1nn2c(nc1=O)sc1ccc3ccccc3c12	> 100 µM (inactive)
C/N=c1/oc2ccccc2cc1C(N)=O	> 100 µM (inactive)

For the next question, use this molecule.
Prompt: Recorded GI50 of C=C/C(C)=C\CC1[C@](C)(O)CC[C@H]2C(C)(C)C(=O)CC[C@]12C (stereo partly specified) , please.
Response: 50.6 µM (inactive)

* * *

- Tested on: NCI-H23
- assayNotes: NCI tumour cell line growth inhibition, 48 h
Calls of active or inactive are those of the source. Rule as the data show it: active = GI50 up to about 1.1 µM and inactive = higher.
Allowed answers: Y = active, N = inactive

Examples from the recorded data:
compound	labelClass
CC(=O)O[C@H]1C(=O)[C@@]2(C)[C@H]([C@H](OC(=O)c3cccc(C(F)(F)F)c3)[C@]3(O)C[C@H](OC(=O)[C@H](O)[C@@H](NC(=O)c4ccccc4)c4ccccc4)C(C)=C1C3(C)C)[C@]1(OC(C)=O)CO[C@@H]1C[C@@H]2O	Y
Cc1nc2ccc([N+](=O)[O-])cc2c(=O)n1C(=S)Nc1cccc(Cl)c1	N
c1cc(-c2ccc(-c3ccc(-c4ccc(-c5ccncc5)o4)cc3)o2)ccn1	N
COC(=O)c1cc2c(cc1CC1Cc3cc4c(cc3C1)CCC4)CCC2	N
O=C1CCCC2=C1CC1=C(CCCC1=O)N2c1cccc2ccccc12	N

Prompt: // param item: "O=C1CCCc2cc3c(cc21)CC1(C3)Cc2cc3c(cc2C1)C(=O)CCC3" ; yields the recorded call
Response: N

Prompt: Outcome logged for "N#C/C(=C\NC(=S)Nc1ccc(S(=O)(=O)Nc2ccccn2)cc1)C(N)=O" in this assay:
Response: N

Prompt: Recorded call for N/N=C1\C(=O)N(Cc2ccccc2)C(=O)C1C(=O)NCc1ccccc1 (stereo unspecified) ?
Response: N

Prompt: Hi, sorry to bother you, what did the test record for CCCN(CCC)C1CCc2c(ccc3cc[nH]c23)C1 (stereo unspecified) ?
Response: N

Prompt: For CSc1nc(NC2OC(COC(C)=O)C(OC(C)=O)C(OC(C)=O)C2OC(C)=O)c(/N=C\C=N/c2c(NC3OC(COC(C)=O)C(OC(C)=O)C(OC(C)=O)C3OC(C)=O)nc(SC)n(C)c2=O)c(=O)n1C (stereo unspecified) , which call appears in the assay record?
Response: N
